# TEST TARGET: Hsp90-AMPPNP (Saccharomyces cerevisiae, UniProt P02829)
# Construct: made in house
# Sequence (P02829 whole entry): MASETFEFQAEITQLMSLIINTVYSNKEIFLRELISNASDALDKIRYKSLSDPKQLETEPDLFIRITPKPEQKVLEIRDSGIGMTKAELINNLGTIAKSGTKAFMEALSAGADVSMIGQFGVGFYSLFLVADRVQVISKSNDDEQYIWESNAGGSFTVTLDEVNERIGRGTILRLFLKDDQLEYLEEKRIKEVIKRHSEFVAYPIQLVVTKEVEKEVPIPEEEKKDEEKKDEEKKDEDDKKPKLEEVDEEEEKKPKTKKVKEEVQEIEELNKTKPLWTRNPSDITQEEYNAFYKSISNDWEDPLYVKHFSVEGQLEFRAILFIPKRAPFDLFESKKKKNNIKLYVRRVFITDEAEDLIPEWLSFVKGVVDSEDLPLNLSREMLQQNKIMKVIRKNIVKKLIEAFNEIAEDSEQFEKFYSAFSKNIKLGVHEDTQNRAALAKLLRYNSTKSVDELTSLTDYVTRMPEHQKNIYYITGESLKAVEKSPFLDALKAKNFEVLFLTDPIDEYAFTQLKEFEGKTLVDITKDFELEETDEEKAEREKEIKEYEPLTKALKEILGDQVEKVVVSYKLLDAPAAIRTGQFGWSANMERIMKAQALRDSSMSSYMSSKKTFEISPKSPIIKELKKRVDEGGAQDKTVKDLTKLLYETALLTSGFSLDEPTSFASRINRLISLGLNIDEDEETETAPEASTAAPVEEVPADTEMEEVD
# ASSAY REMARKS: ITC, LA1011 binding to Hsp90-AMPPNP
# Design: species or system yeast
# DETAILS: 30 μM Hsp90, 5 mM AMPPNP, 2:1 fit, read-out: Kd (2:1)
MEASURED QUANTITY: pKd
Scale explanation: pKd corresponds to minus log10 of a concentration expressed in moles per litre.

[ask] Entry COC(=O)C1=C(CCN(C)C)N(C)C(CCN(C)C)=C(C(=O)OC)C1c1ccc(C(F)(F)F)cc1.Cl.Cl : reported pKd = ?
[reply] 4.14
